protocol_details: Nuclear factor erythroid 2-related factor 2/antioxidant responsive element (Nrf2/ARE) small molecule agonists: luciferase reporter gene qHTS assay in human keratinocytes (AID 1919969); note: nearly all actives have a fitted effect of over 35% in size
condition: KeratinoSens HaCaT ARE-luciferase, luminescence, 24 h; series mostly up to 92.4 µM
Records with an inconclusive call do not appear. Active and inactive are the calls of the source. Calls come from the whole dose curve.
Hi there, use one of these labels in your reply, thanks! true for active, false for inactive

Exam item: For Cc1cc(CCN2CCN(c3nsc4ccccc34)CC2)cc2c1NC(=O)CC2(C)C , what call appears in the results of this test?
Marked response: false

Exam item: Write down the call the test reported for this compound. Item: CN1CCC(OC(c2ccccc2)c2ccccc2)CC1
Marked response: false

Exam item: What classification did CC1(C)C(=O)N(Cl)C(=O)N1Br end up with in this test?
Marked response: false

Exam item: What outcome does the record of this test show for CN1CCC(=C2c3ccccc3Sc3ccccc32)CC1 ?
Marked response: false

Exam item: What did this assay record as the result for CC(=O)OCC1=C(C(=O)O)N2C(=O)[C@@H](NC(=O)CSc3ccncc3)[C@H]2SC1 ?
Marked response: false

Exam item: Status in this test for CCO[Si](CCCSSSSCCC[Si](OCC)(OCC)OCC)(OCC)OCC ?
Marked response: false

Exam item: Check the results log: what was the call for CCC(C)(CCC(C)C)C(=O)[O-].CCC(C)(CCC(C)C)C(=O)[O-].[Zn+2] (stereo unspecified) ?
Marked response: false

Exam item: In this assay, the call recorded for O=[N+]([O-])c1ccc(O)cc1C(F)(F)F was what?
Marked response: true

Exam item: // outcome(item) with item = Nc1ccc(O)c([N+](=O)[O-])c1
Marked response: true

Exam item: What did the test return for COc1cc(/C=C/C(=O)CC(=O)/C=C/c2ccc(O)c(OC)c2)ccc1O ?
Marked response: true

Exam item: What is the recorded call for this compound in the test? C[Si](C)(C)O[Si](O)(O)O
Marked response: false

* * *

measured_on: Muscarinic acetylcholine receptor M1 (Homo sapiens) (UniProt P11229)
Sequence (P11229 whole entry, looked up): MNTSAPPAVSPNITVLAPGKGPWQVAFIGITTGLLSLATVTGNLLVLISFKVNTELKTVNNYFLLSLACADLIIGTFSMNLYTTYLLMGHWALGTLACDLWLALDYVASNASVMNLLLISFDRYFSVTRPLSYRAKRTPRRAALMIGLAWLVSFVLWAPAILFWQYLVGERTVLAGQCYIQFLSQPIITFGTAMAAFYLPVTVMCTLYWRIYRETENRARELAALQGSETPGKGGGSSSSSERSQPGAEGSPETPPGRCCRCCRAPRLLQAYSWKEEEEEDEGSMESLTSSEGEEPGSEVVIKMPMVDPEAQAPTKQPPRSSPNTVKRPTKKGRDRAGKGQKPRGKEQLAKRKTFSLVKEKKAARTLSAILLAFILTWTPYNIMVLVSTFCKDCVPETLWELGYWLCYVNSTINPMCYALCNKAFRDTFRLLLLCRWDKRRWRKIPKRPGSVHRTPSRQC
protocol_details: Cholinergic receptor muscarinic 1 (CHRM1) small molecule agonists, cell-based qHTS assay (AID 1963589); note: nearly all actives have a fitted effect of over 35% in size
condition: CHRM1-CHO cells, agonist mode, calcium flux fluorescence; series mostly up to 76.8 µM
The source made the active and inactive calls. Calls follow the shape of the full dose curve.
quantity_kind: activation

A selection of reference data follows.
>  <compound>
CSc1ccc2c(c1)C(N1CCN(C)CC1)Cc1ccccc1S2 (stereo unspecified)

>  <obs_value>
inactive

$$$$
>  <compound>
CC(N)=O

>  <obs_value>
inactive

$$$$
>  <compound>
C=C[Si]1(C)O[Si](C)(C=C)O[Si](C)(C=C)O[Si](C)(C=C)O1 (stereo unspecified)

>  <obs_value>
inactive

$$$$
>  <compound>
CC(C)(C)c1ccc(N)cc1

>  <obs_value>
inactive

$$$$
>  <compound>
CC(=O)Oc1cccc2c1C(=O)c1c(OC(C)=O)cc(C(=O)O)cc1C2=O

>  <obs_value>
inactive

$$$$
>  <compound>
CC(=O)OCC(=O)[C@@]1(O)[C@H](C)C[C@H]2[C@@H]3CCC4=CC(=O)C=C[C@]4(C)[C@@]3(F)[C@@H](O)C[C@@]21C

>  <obs_value>
inactive

$$$$

Exam item: Lab note: need activation for Cc1c(C(=O)NN2CCCCC2)nn(-c2ccc(Cl)cc2Cl)c1-c1ccc(Cl)cc1 on Muscarinic acetylcholine receptor M1 (Homo sapiens) (UniProt P11229), anyone have it?
Marked response: inactive

Exam item: API: value(readout= activation, system= Muscarinic acetylcholine receptor M1 (Homo sapiens) (UniProt P11229), query= C[C@]12CCC(=O)C=C1[C@@H]1C[C@@H]1[C@H]1[C@@H]3[C@@H]4C[C@@H]4[C@@]4(CCC(=O)O4)[C@@]3(C)CC[C@@H]12 )
Marked response: inactive

Exam item: # query: activation | item CCCCCCOc1ccccc1C(N)=O | system: Muscarinic acetylcholine receptor M1 (Homo sapiens) (UniProt P11229)
Marked response: inactive

Exam item: Query the reported activation for Muscarinic acetylcholine receptor M1 (Homo sapiens) (UniProt P11229); item: NCCCOCCOCCOCCCN
Marked response: inactive

Exam item: Find activation (Muscarinic acetylcholine receptor M1 (Homo sapiens) (UniProt P11229)) for the entry CNC(=S)NC
Marked response: inactive

* * *

measured_on: 5-hydroxytryptamine receptor 2A (Homo sapiens) (UniProt P28223)
Sequence (P28223 whole entry, looked up): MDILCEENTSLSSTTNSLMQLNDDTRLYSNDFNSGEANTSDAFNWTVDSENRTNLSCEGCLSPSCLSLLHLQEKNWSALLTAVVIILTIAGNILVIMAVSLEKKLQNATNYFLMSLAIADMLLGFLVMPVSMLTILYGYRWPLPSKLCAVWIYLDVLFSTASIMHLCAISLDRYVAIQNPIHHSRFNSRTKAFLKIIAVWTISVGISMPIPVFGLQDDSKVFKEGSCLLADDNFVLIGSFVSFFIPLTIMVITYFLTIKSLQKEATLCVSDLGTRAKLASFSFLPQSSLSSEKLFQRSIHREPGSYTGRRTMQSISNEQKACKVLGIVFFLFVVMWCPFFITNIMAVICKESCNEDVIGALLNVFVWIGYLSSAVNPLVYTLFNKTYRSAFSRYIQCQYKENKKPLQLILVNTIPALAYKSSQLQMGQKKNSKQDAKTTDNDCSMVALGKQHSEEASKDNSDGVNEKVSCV
protocol_details: 5-hydroxytryptamine receptor 2A (HTR2A) small molecule agonists, cell-based qHTS assay (AID 1963587); note: nearly all actives have a fitted effect of over 30% in size
condition: HTR2A-CHO cells, calcium flux fluorescence, agonist mode; series mostly up to 76.8 µM
Results filed as inconclusive are left out. Activity calls are given as the source filed them. The call rests on the fitted dose curve.
# valid calls are active, inactive; nothing else

>  <compound>
Cc1ccc(O)c(C(=O)c2ccccc2)c1

>  <measured_on>
5-hydroxytryptamine receptor 2A (Homo sapiens) (UniProt P28223)

>  <class>
inactive

$$$$

Exam item: Which outcome was entered for the compound CCN(CC)CCOc1ccc2c(c1)C(=O)c1cc(OCCN(CC)CC)ccc1-2 in this test?
Marked response: inactive

Exam item: Look up the recorded call for CCN(CC)c1ccc2c(-c3ccccc3C(=O)O)c3ccc(=[N+](CC)CC)cc-3oc2c1 in this test.
Marked response: active

Exam item: Dear all, I need the recorded test outcome for COC(=O)C1=C(C)NC(C)=C(C(=O)O[C@@H]2CCCN(Cc3ccccc3)C2)[C@@H]1c1cccc([N+](=O)[O-])c1 , thank you.
Marked response: inactive

Exam item: Hi, do you know how O=C1CCCCCN1SSN1CCCCCC1=O came out in this test?
Marked response: inactive

Exam item: Field: outcome | Entry: CCCOc1ccc2c(c1)CC[C@@H]1[C@@H]2CC[C@]2(C)C(OC)CC[C@@H]12 (stereo not given in full)
Marked response: inactive

* * *

protocol_details: p53 small molecule agonists, cell-based qHTS assay with human liver microsomes: qHTS cell viability counter screen (AID 1963579); note: nearly all actives have a fitted effect of over 45% in size
condition: p53RE-bla HCT-116 viability, ATP luminescence, 16 h, HLM; series mostly up to 66 µM
Inconclusive results are not listed. The source made the active and inactive calls. The call rests on the fitted dose curve.
Would you mind answering with one of these outcomes? Y (active), N (inactive)

>  <molecule>
Cc1c(-c2cccnc2)c2ccccc2n1CCCCC(=O)O

>  <class>
N

$$$$
>  <molecule>
CCN(CC)CCOC(=O)C1(C2CCCCC2)CCCCC1

>  <class>
N

$$$$
>  <molecule>
CCCCOc1ccc(N)cc1

>  <class>
N

$$$$

Exam item: Outcome? CC(=O)OC(C)C[N+](C)(C)C (stereo not drawn)
Marked response: N

Exam item: Each molecule tested received a call. Report the one for CCC1Nc2cc(Cl)c(S(N)(=O)=O)cc2S(=O)(=O)N1 (stereo not drawn) .
Marked response: N

Exam item: Fill in: this test's call for CCCCCC/C=C\CCCCCCCC(=O)O is ___
Marked response: N

Exam item: // outcome(item) with item = Nc1cc(Cl)c([N+](=O)[O-])cc1O
Marked response: N

Exam item: Lab log entry: NS(=O)(=O)c1ccc(C(=O)O)cc1 — outcome as called in the assay?
Marked response: N

Exam item: Hi team, can someone confirm the assay call for Nc1ccc([N+](=O)[O-])cc1O ?
Marked response: N

Exam item: # outcome recorded in this test, key = COc1cc2ncnc(Nc3ccc(F)c(Cl)c3)c2cc1OCCCN1CCOCC1
Marked response: N

Exam item: Test call, this molecule: CCCCOc1ccc(CC(=O)NO)cc1
Marked response: N

Exam item: Test call, this molecule: COC1=C(OC)C(=O)C(CCCCCCCCCCO)=C(C)C1=O
Marked response: N

* * *

measured_on: KiSS-1 receptor (Homo sapiens) (UniProt Q969F8)
Sequence (Q969F8 whole entry, looked up): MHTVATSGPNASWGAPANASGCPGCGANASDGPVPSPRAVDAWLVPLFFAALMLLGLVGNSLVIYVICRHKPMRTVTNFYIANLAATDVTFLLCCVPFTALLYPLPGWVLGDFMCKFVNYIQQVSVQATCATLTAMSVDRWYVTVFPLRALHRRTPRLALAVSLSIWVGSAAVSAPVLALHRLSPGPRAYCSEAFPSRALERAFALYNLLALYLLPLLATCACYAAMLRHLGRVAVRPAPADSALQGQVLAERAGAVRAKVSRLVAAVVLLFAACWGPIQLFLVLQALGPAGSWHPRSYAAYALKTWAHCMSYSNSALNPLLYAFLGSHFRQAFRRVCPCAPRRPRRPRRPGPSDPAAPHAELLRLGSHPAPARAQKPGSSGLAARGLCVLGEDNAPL
protocol_details: Human kisspeptin (KISS1R) small molecule agonists, calcium flux assay in KISS1R-HEK293 cells (AID 1920064)
condition: KISS1R-HEK293, calcium flux fluorescence, agonist; series mostly up to 76.8 µM
Description: National Center for Advancing Translational Sciences [NCATS] Division of Preclinical Innovation [DPI] U.S. Environmental Protection Agency [EPA] National Institutes of Environmental Health Sciences [NIEHS] National Toxicology Program [NTP] U.S. Food and Drug Administration [FDA] […] KISS1R-HEK293 cells developed by Codex Corp contain human KISS1R gene, which was stably integrated into HEK 293 cells. The compound activation can be detected by fluorescence intensity via calcium flux assay. […]
Active and inactive are the calls of the source. The call rests on the fitted dose curve; in most records, active means well fitted activation curve with a large enough effect in the repeat runs; inconclusive means weak or mixed curves; inactive means flat fitted curve, though single readings scatter.
quantity_kind: activation

Worked examples, 5 compounds total:
>  <compound>
CCCC1C(CC)=CC(CC)=CN1c1ccccc1 (stereo unspecified)

>  <measured_on>
KiSS-1 receptor (Homo sapiens) (UniProt Q969F8)

>  <activation>
inactive

$$$$
>  <compound>
CCc1cc(SCc2sc(-c3ccc(C(F)(F)F)cc3)nc2CN2CCN(c3ccc(OC)cc3)CC2)ccc1OCC(=O)O

>  <measured_on>
KiSS-1 receptor (Homo sapiens) (UniProt Q969F8)

>  <activation>
inactive

$$$$
>  <compound>
Oc1ccc(C2(c3ccc(O)cc3)CC3CC2C2CCCC32)cc1 (stereo unspecified)

>  <measured_on>
KiSS-1 receptor (Homo sapiens) (UniProt Q969F8)

>  <activation>
inactive

$$$$
>  <compound>
Cc1ccc(C=O)cc1C

>  <measured_on>
KiSS-1 receptor (Homo sapiens) (UniProt Q969F8)

>  <activation>
inactive

$$$$
>  <compound>
Nc1cccc([N+](=O)[O-])c1

>  <measured_on>
KiSS-1 receptor (Homo sapiens) (UniProt Q969F8)

>  <activation>
inactive

$$$$

Please turn your attention to the following entry.
Exam item: Form entry - test system: KiSS-1 receptor (Homo sapiens) (UniProt Q969F8); read-out: activation; compound: O=C(O)Cc1cc(I)c(Oc2ccc(O)c(I)c2)c(I)c1
Marked response: inactive
